# test system: Sodium-dependent dopamine transporter (Homo sapiens)
# Sequence (Q01959 whole entry): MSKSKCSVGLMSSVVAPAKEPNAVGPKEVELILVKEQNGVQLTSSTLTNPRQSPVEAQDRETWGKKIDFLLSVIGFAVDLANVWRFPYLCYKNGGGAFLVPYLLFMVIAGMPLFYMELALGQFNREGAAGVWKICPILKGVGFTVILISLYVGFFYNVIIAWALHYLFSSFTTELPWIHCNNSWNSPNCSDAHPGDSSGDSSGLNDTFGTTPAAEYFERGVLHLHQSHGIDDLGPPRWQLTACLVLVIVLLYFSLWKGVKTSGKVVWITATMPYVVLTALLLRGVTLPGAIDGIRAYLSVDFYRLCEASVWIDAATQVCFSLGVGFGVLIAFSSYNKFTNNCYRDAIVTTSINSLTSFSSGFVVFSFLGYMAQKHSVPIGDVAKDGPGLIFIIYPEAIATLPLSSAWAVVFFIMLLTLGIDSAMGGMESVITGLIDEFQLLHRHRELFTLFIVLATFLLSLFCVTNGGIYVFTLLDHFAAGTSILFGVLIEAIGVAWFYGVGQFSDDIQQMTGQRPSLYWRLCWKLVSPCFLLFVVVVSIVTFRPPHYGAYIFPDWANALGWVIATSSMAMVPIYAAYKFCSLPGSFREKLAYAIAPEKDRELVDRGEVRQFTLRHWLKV
# assay method text: In vitro binding affinity for dopamine uptake site
So I've got a bunch of molecules here, and I need their Ki values.

Reported Ki, molecule Cl.NC[C@@H]1O[C@H](c2ccccc2)Cc2c1ccc(Br)c2O : ____ > 30000 nM

I'd like to know its Ki. The molecule in question is Br.Cc1ccc2c(c1O)C[C@@H](C1CCCCC1)O[C@H]2CN 1870 nM

---

# test system: UniProtKB P61169
# assay method text: Binding affinity for dopamine receptor D2
recorded metric: pKi
# pKi is unitless: minus log10 of the molar concentration; print number only

May I ask what pKi has been recorded for NC[C@H]1O[C@H](c2ccccc2)Cc2c1ccc(Br)c2O ? 5.71

I have this compound here, CNC[C@@H]1O[C@H](C2CCCCC2)Cc2c1ccc(C)c2O , and I need its recorded pKi. 5.34

# get_value(readout='pKi', item= Cl.NC[C@@H]1O[C@H](c2ccccc2)Cc2c1ccc(Br)c2O ) 6.24

Give the measured pKi of CCCNC[C@@H]1O[C@H](C2CCCCC2)Cc2c1ccc(C)c2O . 5.58

What value of measured pKi is listed for NC[C@@H]1O[C@H](C2CCCCC2)Cc2c1ccc(O)c2O ? 5.95

Item Cc1ccc2c(c1O)C[C@@H](C1CCCCC1)O[C@H]2CN(C)C has what recorded pKi? 4.74

---

# test system: D(1) dopamine receptor (Carassius auratus)
# Sequence (P35406 whole entry): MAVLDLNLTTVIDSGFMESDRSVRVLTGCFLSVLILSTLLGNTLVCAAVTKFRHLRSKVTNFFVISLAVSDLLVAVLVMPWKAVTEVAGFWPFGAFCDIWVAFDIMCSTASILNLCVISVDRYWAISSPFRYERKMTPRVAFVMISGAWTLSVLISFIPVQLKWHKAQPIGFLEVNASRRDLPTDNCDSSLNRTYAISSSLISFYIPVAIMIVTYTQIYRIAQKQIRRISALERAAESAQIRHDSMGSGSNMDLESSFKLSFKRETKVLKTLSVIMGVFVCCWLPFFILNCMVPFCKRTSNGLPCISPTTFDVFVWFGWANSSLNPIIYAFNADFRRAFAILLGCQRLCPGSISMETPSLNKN
# assay method text: In vitro inhibition of dopamine stimulated adenylate cyclase
recorded metric: pKi
Lab note — pKi values are minus log10 of concentrations in M.

For COc1ccc2c(c1O)C[C@@H](c1ccccc1)O[C@H]2CN , what is its reported pKi? 6.61

pKi for CCCNC[C@@H]1O[C@H](C2CCCCC2)Cc2c1ccc(C)c2O ? 6.34

// returns reported pKi for input Cc1ccc2c(c1O)C[C@@H](C1CCCCC1)O[C@H]2CN(C)C 6.90

What value of measured pKi is listed for Cl.NC[C@@H]1O[C@H](c2ccccc2)Cc2c1ccc(Br)c2O ? 7.49

GET /values?readout=pKi&item= NC[C@H]1O[C@H](c2ccccc2)Cc2c1ccc(Br)c2O 6.71

Return reported pKi; argument: Br.Cc1ccc2c(c1O)C[C@@H](C1CCCCC1)O[C@H]2CN 7.00

Quick check: pKi of CNC[C@@H]1O[C@H](C2CCCCC2)Cc2c1ccc(C)c2O ? 6.92

May I ask what pKi has been recorded for NC[C@@H]1O[C@H](c2ccccc2)Cc2c(O)cccc21 ? 7.28

---

Exercise: for every item that follows, state its recorded Ki.
# test system: D(2) dopamine receptor (Rattus norvegicus, UniProt P61169)
# Sequence (P61169 whole entry): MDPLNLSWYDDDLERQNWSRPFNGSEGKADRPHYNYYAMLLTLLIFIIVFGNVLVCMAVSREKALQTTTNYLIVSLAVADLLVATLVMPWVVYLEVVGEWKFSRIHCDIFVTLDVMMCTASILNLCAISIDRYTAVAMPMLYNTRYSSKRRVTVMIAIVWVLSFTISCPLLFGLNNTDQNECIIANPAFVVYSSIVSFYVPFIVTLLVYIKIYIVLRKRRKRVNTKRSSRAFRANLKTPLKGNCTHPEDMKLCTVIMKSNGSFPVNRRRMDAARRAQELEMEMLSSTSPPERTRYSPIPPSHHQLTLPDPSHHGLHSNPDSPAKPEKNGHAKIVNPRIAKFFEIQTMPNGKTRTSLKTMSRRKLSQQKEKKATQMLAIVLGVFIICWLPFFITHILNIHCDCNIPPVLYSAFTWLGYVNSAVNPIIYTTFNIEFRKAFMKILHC
# assay method text: Binding affinity for dopamine receptor D2

Ki for NC[C@@H]1O[C@H](c2ccccc2)Cc2c(O)cccc21 ? > 30 µM

I would be grateful if you could share the reported Ki for COc1ccc2c(c1O)C[C@@H](c1ccccc1)O[C@H]2CN . > 30 µM

Please give the measured Ki for this compound: Br.Cc1ccc2c(c1O)C[C@@H](C1CCCCC1)O[C@H]2CN > 30 µM
